- tested-target: T1, human full-length Notch1 with C-terminal FLAG tag, stably expressed on 293 FlpIn (TREx) cells (human, UniProt P46531 19-2555)
- T1 construct: tetracycline/doxycycline-induced expression from pcDNA5/FRT/TO-HN1+FLAG; also called hN1; 293_N1
- experiment-summary: FACS, phage scFv
measurement-kind: binding result

1. N1wc160 (scFv, V domains shown, phage scFv) VH: QVQLQESGAEVKKPGASVKVSCKASGYNFTGYYMHWVRQAPGQGLEWMGWINPNSGGTNYAQKFQGRVTMTRDTSISTAYMELSRLRSDDTAVYYCATDSFDYWGRGTMVTVSS VL: SYVLTQPPSASGTPGQRVTISCSGSSSNIGSNTVHWYQQLPETAPKLLIYTNNQRPSGVPDRFSGSKSGTSASLAISGLQSEDEADYYCASWDDSLKAYVFGTRTKLTVL | binds
2. N1wc586 (scFv, V domains shown, phage scFv) VH: QVQLVQSGPEVKKPGASVKVSCKAAGYTFPDFYMHWVRQAPGKGPEWVGWINSNSGSTRLAERLEGRVTLTRDTSISTAYMELTSLTSDDTAVYYCARGAYDYVWGTSRYVADAFDIWGQGTLVTVSP VL: DIVMTQSPSTLSASVGDRVTITCRASQGISSWLAWYQQKPGRAPKVLIYKASTLESGVPSRFSGSGSGTDFTLTISSLQPEDFATYYCQQSYSTPWTFGQGTKLEIK | binds
3. hN1S3-067 (scFv, V domains shown, phage scFv) VH: EVQLVQSGAEVKKPGASVRISCKTSGFTFTSYFIHWVRQAPGQRPEWMGVINPSRGNADYAPRFRGRVTMTRDKSTHTVYMDLKSLRSDDAAIYYCARDRLGGLLDYYDSSDSSKNFDAFDFWGQGTLVTVSS VL: NFMLTQPHSVSESPGKTVIISCTRSSGSIASNYVQWLQQRPGSSPTTVIYDDNRRPSGVPDRFSGSIDGSSNSASLTISGLKTEDEADYYCQSYDRFDHVVFGGGTKLTVL | binds
4. N1wc170 (scFv, V domains shown, phage scFv) VH: QVQLQQSGPEVKKPGASVKISCKTSGYTFSSFGISWVRQAPGQGPEWMGWVSPYSGDTDYAQKFRGRVTMTIDSSTDTAYVEMRSLRSDDTAIYYCANSPISDGSSSSYDNWGKGTLVTVSS VL: SYELTQPPSVSVAPGQTARITCGGENIGTKSVHWYQQKSGQAPVLVIYEDKKRPSGIPDRFSGSSSGTMATLTITGAQVDDEADYYCYSADNTGDQRMFGGGTKLTVL | binds
5. N1wc137 (scFv, V domains shown, phage scFv) VH: QVQLVQSGAEVKKPGASVKVSCKASGYTFTNYGLSWVRQAPGQGLEWMGWISGYNDNTSYAQKFQDRITMTTDTSTSTASMELRSLRSDDTAVYYCAFSYYDSSGYFNWGQGTMVTVSS VL: QAVLTQPSSVSGAPGQRVTVSCTGSSSNIGTGYAVHWYQQLPGTAPRLLIFGNNNRPSGVPDRFSGSKSGTSASLVITGLQAEDEADYYCQSFDTLSGSRVFGGGTKVTVL | binds
